Data origin: patent US4564641A

# Tested on: reserpine-induced hypothermia
# ASSAY_NAME: inhibition of reserpine-induced hypothermia in mice (antidepressant action)
# Type: in vivo, mice (Swiss strain)
# MEASUREMENT_CONDITIONS: Mus musculus; male mice (Swiss strain), oral, 60 minutes before 2.15 mg/kg reserpine s.c.; body temperature two hours after reserpine; read-out: ED50 (antidepressant action, dose which inhibits the reserpine-induced hypothermia by 50%)
VALUE_KIND: ED50 (mg/kg)
Numbers only here, please. The scale is mg/kg.

Consider the reported ED50 for these compounds:
Ask: Consider the compound CN(C)CCC1(c2cccc(Cl)c2)CCc2ccccc2C1=O.Cl (stereo not drawn) and give its measured ED50.
Reply: 5.2

Ask: Consider the compound Cc1cccc(C2(CCN(C)C)CCc3ccccc3C2=O)c1 (stereo not drawn) and give its measured ED50.
Reply: 6.8

New cases:
Ask: Consider the compound CN(C)CCC1(c2ccccc2)CCc2c(Cl)cccc2C1=O (stereo not drawn) and give its measured ED50.
Reply: 0.9

Ask: Consider the compound CN(C)CCC1(c2ccc(Cl)cc2)CCc2ccccc2C1=O (stereo not drawn) and give its measured ED50.
Reply: 4.6

Ask: Consider the compound COc1cccc(C2(CCN(C)C)CCc3ccccc3C2=O)c1.O=C(O)C(=O)O (stereo not drawn) and give its measured ED50.
Reply: 2.3

Ask: Consider the compound CN(C)CCC1(c2ccc(F)cc2)CCc2ccccc2C1=O.Cl (stereo not drawn) and give its measured ED50.
Reply: 4.9
